biological target: CB1R (Homo sapiens); experiment: CB1R radioligand binding competition ([3H]CP55,940); parameters: host or cells: CHO-CB1 C3 cell line; conditions: percentage displacement of specific [3H]CP 55,940 binding at 1 μM, n = 2
Sequence (P21554 whole entry): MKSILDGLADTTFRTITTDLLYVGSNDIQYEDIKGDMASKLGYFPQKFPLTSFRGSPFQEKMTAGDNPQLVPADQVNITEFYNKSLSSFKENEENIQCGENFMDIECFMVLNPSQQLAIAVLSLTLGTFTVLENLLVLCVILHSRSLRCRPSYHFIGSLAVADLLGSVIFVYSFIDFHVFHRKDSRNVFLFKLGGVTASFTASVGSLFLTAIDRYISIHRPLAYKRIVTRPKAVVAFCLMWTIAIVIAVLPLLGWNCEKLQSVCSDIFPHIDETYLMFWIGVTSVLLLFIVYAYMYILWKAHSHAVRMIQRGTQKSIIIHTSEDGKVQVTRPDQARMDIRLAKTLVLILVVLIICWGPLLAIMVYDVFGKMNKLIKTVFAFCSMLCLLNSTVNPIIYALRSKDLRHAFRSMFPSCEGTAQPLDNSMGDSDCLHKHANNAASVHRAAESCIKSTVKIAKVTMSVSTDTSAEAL
Parameter: CB1R % at 1 μM. Scope: all listed entries.

Example entries and their recorded answers appear below.
MOLECULE	TEST SYSTEM	READOUT LABEL	ENDPOINT RESULT
CCCCCn1cc(C(=O)N2CCC[C@@H]2C(=O)OC)c2ccccc21 [15b]	CB1R (Homo sapiens)	CB1R % at 1 μM	4%
CCCCCn1nc(C(=O)N2CCC[C@@H]2C(=O)OC)c2ccccc21 [15j]	CB1R (Homo sapiens)	CB1R % at 1 μM	4%

Q) CB1R % at 1 μM lookup needed for NC(=O)[C@H]1CCCN1C(=O)c1nn(CCCCCF)c2ccccc12 [17l] , thanks.
A) 4%
